// data source = ChEMBL document CHEMBL3227974

Molecular target: Thymidylate synthase (Lactobacillus casei) (UniProt P00469)
Sequence (P00469 whole entry): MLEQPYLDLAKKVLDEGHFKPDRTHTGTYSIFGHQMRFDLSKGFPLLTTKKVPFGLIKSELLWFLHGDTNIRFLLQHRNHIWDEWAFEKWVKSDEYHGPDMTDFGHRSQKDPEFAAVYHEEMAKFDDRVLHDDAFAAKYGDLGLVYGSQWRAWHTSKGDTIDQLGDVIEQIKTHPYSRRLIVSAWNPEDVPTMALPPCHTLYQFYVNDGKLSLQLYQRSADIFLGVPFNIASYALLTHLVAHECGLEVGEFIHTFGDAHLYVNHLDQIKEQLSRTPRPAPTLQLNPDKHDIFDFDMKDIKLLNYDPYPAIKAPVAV
Experiment: Inhibition of thymidylate synthetase in Lactobacillus casei
Conditions: Lacticaseibacillus casei
Note to self: log(1/I50) under 5 means true, ties and anything higher get false.

Check out these entries, answers already filled in.
INSERT INTO assay_data (compound, assigned_category) VALUES
  ('Nc1nc(S)c2cc(CNc3ccc(C(=O)O)cc3)ccc2n1', 'true'),
  ('Nc1nc(=O)c2cc(CSc3ccc(C(=O)NC(CCC(=O)O)C(=O)O)cc3)ccc2[nH]1 (stereo not drawn)', 'false'),
  ('CCOC(=O)CCC(NC(=O)c1ccc(NCc2ccc3nc(N)nc(N)c3c2C)cc1)C(=O)OCC (stereo not drawn)', 'true'),
  ('CCOC(=O)c1ccc(CNc2ccc3nc(N)nc(O)c3c2)cc1', 'true'),
  ('CCOC(=O)CCC(NC(=O)c1ccc(CNc2ccc3nc(N)nc(O)c3c2C)cc1)C(=O)OCC (stereo not drawn)', 'true');

Now look at this entry.
Is log(1/I50) strictly under 5 for the entry Nc1nc(N)c2cc(NCc3ccc(C(=O)NC(CCC(=O)O)C(=O)O)cc3)ccc2n1 (stereo not drawn) ? false
